system: monoclonal antibody 4B5-E3; conditions: peptides bound to avidin coated plates at 1 μg/ml; absorbance at 450 nm
No end group written: not given here. *: point of attachment. Biotin = O=C1N[C@H]2[C@H](CS[C@H]2CCCCC(=O)*)N1
PARAMETER MEASURED: binding of peptide to monoclonal antibody 4B5-E3

- SUBSTANCE: "Biotin-ARLGPEWSQ [Peptide 4.4]"
  OBS VALUE: "binds monoclonal"
- SUBSTANCE: "Biotin-ARLGPEWS [Peptide 4.5]"
  OBS VALUE: "binds monoclonal"

Values compiled from patent US9085795B2.
